target: BChE (Homo sapiens); assay: Microtiter (Ellman) assay for BChE inhibition; format: biochemical; details: read-out: ChE Inhibition (Inhibition % ± S.D. at 100 µg/mL) BChE
Sequence (P06276 29-602): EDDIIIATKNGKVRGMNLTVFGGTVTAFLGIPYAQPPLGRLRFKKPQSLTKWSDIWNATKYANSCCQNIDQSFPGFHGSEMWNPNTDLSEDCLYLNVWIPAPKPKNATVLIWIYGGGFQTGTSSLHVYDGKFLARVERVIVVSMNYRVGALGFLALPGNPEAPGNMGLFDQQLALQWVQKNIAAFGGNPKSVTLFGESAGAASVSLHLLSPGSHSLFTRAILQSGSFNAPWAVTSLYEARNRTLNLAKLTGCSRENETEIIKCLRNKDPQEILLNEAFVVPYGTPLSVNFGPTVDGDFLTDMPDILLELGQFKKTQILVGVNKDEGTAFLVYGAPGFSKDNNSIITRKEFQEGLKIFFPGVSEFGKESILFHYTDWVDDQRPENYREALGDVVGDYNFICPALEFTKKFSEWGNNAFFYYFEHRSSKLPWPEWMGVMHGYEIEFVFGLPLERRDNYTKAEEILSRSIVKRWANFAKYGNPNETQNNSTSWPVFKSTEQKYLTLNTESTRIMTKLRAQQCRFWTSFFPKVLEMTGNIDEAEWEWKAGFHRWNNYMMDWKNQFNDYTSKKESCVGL
attribute.measured: inhibition at 100 µg/mL (%)
The reply should contain only the number, in %.

CC(C)(O)[C@@H]1CC[C@](C)([C@H]2[C@@H](O)C[C@@]3(C)[C@@H]4C[C@H](O[C@@H]5O[C@H](CO)[C@@H](O)[C@H](O)[C@H]5O)[C@H]5C(C)(C)[C@@H](O[C@@H]6OC[C@@H](O)[C@H](O)[C@H]6O[C@@H]6O[C@H](CO)[C@@H](O)[C@H](O)[C@H]6O)CC[C@@]56C[C@@]46CC[C@]23C)O1 [Astragaloside VI]; 7.72

Lookup: Look up inhibition at 100 µg/mL for this compound: CC(CCC(O)C(C)(C)O)C1C(O)CC2(C)C3CC(OC4OC(CO)C(O)C(O)C4O)C4C(C)(C)C(OC5OCC(O)C(O)C5O)CCC45CC35CCC12C (stereo not drawn) [Cyclocanthoside E]
Found: 5.35

Lookup: Look up inhibition at 100 µg/mL for this compound: CC(CCC(O)C(C)(C)O)C1C(O)CC2(C)C3CC(OC4OC(CO)C(O)C(O)C4O)C4C(C)(C)C(OC5OCC(O)C(O)C5OC5OC(CO)C(O)C(O)C5O)CCC45CC35CCC12C (stereo not drawn) [Cyclocanthoside G]
Found: 8.23
